- Test system: PC-3 cells
- procedure-summary: Mitochondrial membrane potential, JC-10 flow cytometry
- Format: cell-based, human
- experimental-parameters: IC50,light 4 h, blue light 1 h, control 63.0 ± 10.6%
Residues, ends and D or L forms follow the SMILES beside them. *: point of attachment. X1 = Cn1c2ccccc2c2ccnc(-c3ccc(/C=C/C(=O)*)cn3)c21
For each of the compounds below, state its population of cells emitting JC-10 orange fluorescence.
Numbers only, in %.

Reference set (3 entries):
COC(=O)/C=C/c1ccc(-c2nccc3c4ccccc4n(C)c23)nc1.[Cl-].[Ir+3].[c-]1ccccc1-c1ccccn1.[c-]1ccccc1-c1ccccn1 : 21.2
CC(C)C[C@H](NC(=O)[C@H](CC(C)C)NC(=O)[C@H](Cc1c[nH]cn1)NC(=O)CNC(=O)[C@@H](NC(=O)[C@H](C)NC(=O)[C@H](Cc1c[nH]c2ccccc12)NC(=O)[C@H](CCC(N)=O)NC(=O)[C@H](CC(N)=O)NC(=O)CNC(=O)[C@H](CC(C)C)NC(=O)[C@H](CCCNC(=N)N)NC(=O)[C@H](CCC(N)=O)NC(=O)/C=C/c1ccc(-c2nccc3c4ccccc4n(C)c23)nc1)C(C)C)C(N)=O [Ir-BN] (X1-QRLGNQWAVGHLL-NH2) : 16.0
Cn1c2ccccc2c2ccnc(-c3ccc(/C=C/C(=O)O)cn3)c21.[Cl-].[Cl-].[Ru+2].c1ccc(-c2ccccn2)nc1.c1ccc(-c2ccccn2)nc1 : 28.2

Problem: State the recorded population of cells emitting JC-10 orange fluorescence for this entry: Cn1c2ccccc2c2ccnc(-c3ccc(/C=C/C(=O)O)cn3)c21.[Cl-].[Ir+3].[c-]1ccccc1-c1ccccn1.[c-]1ccccc1-c1ccccn1
Result: 16.6
